Source listed as ChEMBL document CHEMBL1137130.

Listing: pIC50 of selected molecules
- TARGET: Inhibitor of nuclear factor kappa-B kinase subunit beta (Homo sapiens, UniProt O14920)
- Sequence (O14920 whole entry): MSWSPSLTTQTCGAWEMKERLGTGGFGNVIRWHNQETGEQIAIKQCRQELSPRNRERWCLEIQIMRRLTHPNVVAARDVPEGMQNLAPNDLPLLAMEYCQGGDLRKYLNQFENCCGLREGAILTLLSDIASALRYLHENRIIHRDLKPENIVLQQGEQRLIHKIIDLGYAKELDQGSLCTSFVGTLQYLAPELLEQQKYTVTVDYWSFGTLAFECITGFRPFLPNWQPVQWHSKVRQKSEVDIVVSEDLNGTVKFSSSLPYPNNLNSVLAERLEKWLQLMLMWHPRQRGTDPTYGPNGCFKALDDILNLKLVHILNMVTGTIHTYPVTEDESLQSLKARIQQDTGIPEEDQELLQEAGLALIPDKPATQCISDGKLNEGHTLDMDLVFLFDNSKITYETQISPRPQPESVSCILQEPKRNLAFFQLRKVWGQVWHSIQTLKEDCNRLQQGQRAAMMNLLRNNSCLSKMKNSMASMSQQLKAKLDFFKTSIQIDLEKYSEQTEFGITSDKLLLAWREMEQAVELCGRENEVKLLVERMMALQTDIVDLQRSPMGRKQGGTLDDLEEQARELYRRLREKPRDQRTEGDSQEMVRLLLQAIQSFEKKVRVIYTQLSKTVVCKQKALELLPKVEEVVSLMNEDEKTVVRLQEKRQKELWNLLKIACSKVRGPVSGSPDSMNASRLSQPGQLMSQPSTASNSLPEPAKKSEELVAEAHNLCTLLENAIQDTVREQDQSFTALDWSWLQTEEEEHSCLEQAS
- ASSAY DETAILS: Inhibition of recombinant human I-kappa-B-kinase beta (IKK beta)
pIC50: −log10 of the molar value.
ENDPOINT LABEL: pIC50

{"MOLECULE": "N#Cc1c(C2CCCNC2)cc(-c2c(O)cccc2OCC2CC2)nc1N (centres undefined)", "TARGET": "Inhibitor of nuclear factor kappa-B kinase subunit beta (Homo sapiens, UniProt O14920)", "RECORDED VALUE": 8.52}
{"MOLECULE": "CC(C)COc1cccc(O)c1-c1cc(C2CCCNC2)c(C#N)c(N)n1 (centres undefined)", "TARGET": "Inhibitor of nuclear factor kappa-B kinase subunit beta (Homo sapiens, UniProt O14920)", "RECORDED VALUE": 8.30}
{"MOLECULE": "COc1cccc(-c2cc(C3CCCNC3)c(C#N)c(N)n2)c1O (centres undefined)", "TARGET": "Inhibitor of nuclear factor kappa-B kinase subunit beta (Homo sapiens, UniProt O14920)", "RECORDED VALUE": 4.70}
{"MOLECULE": "N#Cc1c(C2CCCNC2)cc(-c2c(O)cccc2O)nc1N (centres undefined)", "TARGET": "Inhibitor of nuclear factor kappa-B kinase subunit beta (Homo sapiens, UniProt O14920)", "RECORDED VALUE": 7.82}
